# measured.on: human OGG1 enzyme (Homo sapiens)
# Sequence (O15527 whole entry): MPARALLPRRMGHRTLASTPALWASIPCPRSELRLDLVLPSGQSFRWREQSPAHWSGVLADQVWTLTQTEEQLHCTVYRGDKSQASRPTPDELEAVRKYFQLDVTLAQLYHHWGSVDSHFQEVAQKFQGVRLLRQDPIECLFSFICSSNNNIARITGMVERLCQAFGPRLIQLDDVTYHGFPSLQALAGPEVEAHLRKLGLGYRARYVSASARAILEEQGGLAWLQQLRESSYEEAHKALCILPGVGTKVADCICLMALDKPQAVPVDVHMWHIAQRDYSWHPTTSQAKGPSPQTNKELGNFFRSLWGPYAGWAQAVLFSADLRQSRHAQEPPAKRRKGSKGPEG
# experiment.description: OGG1 glycosylase activity assay (enzyme inhibition, APE1-coupled fluorescence)
# Assay type: biochemical
# condition.description: read-out: IC50
Reported pIC50 values for a set of compounds
Reminder that pIC50 is minus the log10 of a molar concentration.

Field: example entries. Status: answers known.
1. O=C(Nc1noc2c1CCCC2)[C@H]1Cc2ccccc21	4.24
2. O=C(Nc1ccc(I)cc1)N1CCC(n2c(=O)[nH]c3c(Br)cccc32)CC1 [TH5487, reference compound]	6.47
3. Cc1cc(C)n(-c2ccc(CC(=O)Nc3noc4c3CCCC4)cc2)n1	5.18
4. Cc1nc(-c2ccc(CC(=O)Nc3noc4c3CCCC4)cc2)c(C)[nH]1	6.22

Input line: Quickly give me recorded pIC50 for Cc1nc(-c2cc(F)c(CC(=O)Nc3noc4c3CCCC4)c(F)c2)c(C)[nH]1
Output line: 6.22
